The measurements presented in this section are drawn from patent US20230011916A1.

- target-of-assay: T1, full-length human OX40 expressed on HuT78 cells (HuT78/OX40) (human, UniProt P43489 29-277)
- T1 sequence: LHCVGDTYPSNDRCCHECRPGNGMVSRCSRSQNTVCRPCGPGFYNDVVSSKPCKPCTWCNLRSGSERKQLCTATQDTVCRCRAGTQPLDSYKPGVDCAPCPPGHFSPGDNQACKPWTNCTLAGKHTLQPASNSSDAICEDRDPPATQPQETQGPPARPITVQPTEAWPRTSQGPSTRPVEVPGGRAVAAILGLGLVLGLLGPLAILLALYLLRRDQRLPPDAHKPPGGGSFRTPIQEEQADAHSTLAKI
- experiment-description: flow cytometry on live HuT78/OX40 cells; Test 2
quantity-name: EC50 (µg/mL)
API: value field is a number in µg/mL; no unit string.

For orientation, consider the following solved cases.
445-1 (antibody, V domains shown) VH: QVQLVQSGAEVKKPGSSVKVSCKASGYKFTSYIIHWVRQAPGQGLEWMGYINPYNDGTRYNQKFQGRVTLTSDKSTSTAYMELSSLRSEDTAVYYCARGYYGSSYAMDYWGQGTTVTVSS VL: DIQMTQSPSSLSASVGDRVTITCSASQGISNYLNWYQQKPGKAIKLLIYDTSTLYSGVPSRFSGSGSGTDYTLTISSLQPEDFATYYCQQYSKLPYTFGGGTKVEIK = 0.278
445-2 (antibody, V domains shown) VH: QVQLVQSGAEVKKPGSSVKVSCKASGYKFTSYIIHWVRQAPGQGLEWMGYINPYNEGTRYAQKFQGRVTLTADKSTSTAYMELSSLRSEDTAVYYCARGYYGSSYAMDYWGQGTTVTVSS VL: DIQMTQSPSSLSASVGDRVTITCSASQGISNYLNWYQQKPGKAIKLLIYDASTLYSGVPSRFSGSGSGTDFTLTISSLQPEDFATYYCQQYSKLPYTFGGGTKVEIK = 0.363

According to the records, this binder 445-3 (antibody, V domains shown) VH: QVQLVQSGAEVKKPGSSVKVSCKASGYKFTSYIIHWVRQAPGQGLEWMGYINPYNEGTRYNQKFQGRVTLTADKSTSTAYMELSSLRSEDTAVYYCARGYYGSSYAMDYWGQGTTVTVSS VL: DIQMTQSPSSLSASVGDRVTITCRASQGISNYLNWYQQKPDGAIKLLIYDASTLYSGVPSRFSGSGSGTDFTLTISSLQPEDFATYYCQQYSKLPYTFGGGTKVEIK displays EC50 of 0.319

Form: binder = ch445 (antibody, V domains shown, also called Mu445 variable domains fused to human IgG1wt/kappa constant regions) VH: EVQLQQSGPELVKPGASVKMSCKASGYKFTSYIIHWVKQKPGQGLEWIGYINPYNDGTRYNEKFKGKATLTSDKSSSTAYMEYSSLTSEDSAVYYCARGYYGSSYAMDYWGQGTSVTVSS VL: DIQMTQTTSSLSASLGDRVTISCSASQGISNYLNWYQQKPDGTIKLLIYDTSTLYSGVPSRFSGSGSGTDYFLTISNLEPEDIATYYCQQYSKLPYTFGGGTKLEKK ; EC50 = 0.277
